Source listed as paper PMC12040169.

- PROTOCOL_NOTES: in vitro
- TEST_CONTEXT: human, hela cells, % viability
Listing of entries alongside the reported viability at 28.5 h, 10 µM.

- COMPOUND: "CCCCCC(=O)Nc1ccc(C(=O)Cn2nc(C(=O)O)c3ccccc3c2=O)cc1"
  viability at 28.5 h, 10 µM / %: 104
- COMPOUND: "O=C(NCc1ccco1)c1cccc(Oc2ccccc2)c1"
  viability at 28.5 h, 10 µM / %: 89.3
- COMPOUND: "Cc1nn(C)c(N2CCNCC2)c1NC(=O)/C=C/c1cccnc1 [CBK050354T]"
  viability at 28.5 h, 10 µM / %: 95.4
